Hi there, I'd appreciate the recorded IC50 for every entry that follows.
# Tested on: OCI-AML-2 (MBNL1-CRAF fusion)
# test: Cell viability assay (CellTiter Glo)
# Type: cell-based
# conditionContext: OCI-AML-2, 1000 cells per well, 72 hours; read-out: BRAF Cytotoxicity (IC50, nM) OCI-AML-2
One number for each entry, in nM.

Illustrative cases are given below, each with its answer.
compound="CCC(O)c1cc(C)c(-c2cc3cnc(NC(=O)[C@@H]4C[C@@H]4F)cc3n(C)c2=O)cn1 (single isomer, unassigned; isomer a) [Example S40, Isomer A]" quantitativereadout=496
compound="CCCC(O)c1cc(C)c(-c2cc3cnc(NC(=O)[C@H]4C[C@H]4F)cc3n(C)c2=O)cn1 (single isomer, unassigned) [Example S43, Isomer B]" quantitativereadout=2710
compound="CCC(O)c1cc(C)c(-c2cc3cnc(NC(=O)[C@H]4CC4(F)F)cc3n(C)c2=O)cn1 (single isomer, unassigned) [Example S49, Isomer B]" quantitativereadout=153

Input: // lookup IC50 for CCCC(O)c1cc(C)c(-c2cc3cnc(NC(=O)[C@H]4C[C@H]4F)cc3n(C)c2=O)cn1 (single isomer, unassigned) [Example S43, Isomer A]
Output: 457

###

# Test system: A375 (BRAF V600E)
# test: Cell viability assay (CellTiter Glo)
# Type: cell-based
# conditionContext: A375, 1000 cells seeded per well, 72 hours; read-out: BRAF Cytotoxicity (IC50, nM) A375 (1000 cells)
propertyName: IC50 (nM)
One number for each entry, in nM.

compound="CCCC(O)c1cc(C)c(-c2cc3cnc(NC(=O)[C@H]4C[C@H]4F)cc3n(C)c2=O)cn1 (single isomer, unassigned) [Example S43, Isomer B]" propertyname=IC50 unitstext=nM quantitativereadout=189
compound="CCC(O)c1cc(C)c(-c2cc3cnc(NC(=O)[C@@H]4C[C@@H]4F)cc3n(C)c2=O)cn1 (single isomer, unassigned; isomer b) [Example S40, Isomer B]" propertyname=IC50 unitstext=nM quantitativereadout=940

Consider now this further compound.
Input: // lookup IC50 for CCCC(O)c1cc(C)c(-c2cc3cnc(NC(=O)C4CC4)cc3n(C)c2=O)cn1 (single isomer, unassigned) [Example S42, Enantiomer A]
Output: 930

###

# Tested on: K562 cells
# test: Cell viability assay (CellTiter Glo)
# Type: cell-based
# conditionContext: K562 cells grown as in Example B1; read-out: BRAF Cytotoxicity (IC50, nM) K562
propertyName: IC50 (nM)
Answers are plain numbers, in nM.

Input: Test system K562 cells; read-out IC50; what value for CCC(O)c1cc(C)c(-c2cc3cnc(NC(=O)[C@@H]4C[C@@H]4F)cc3n(C)c2=O)cn1 (single isomer, unassigned; isomer a) [Example S40, Isomer A] ?
Output: 1230

###

# subjectOfTest: ABL1 (F317I) (Homo sapiens (Human), UniProt P00519, F317I)
# Sequence (P00519 whole entry F317I): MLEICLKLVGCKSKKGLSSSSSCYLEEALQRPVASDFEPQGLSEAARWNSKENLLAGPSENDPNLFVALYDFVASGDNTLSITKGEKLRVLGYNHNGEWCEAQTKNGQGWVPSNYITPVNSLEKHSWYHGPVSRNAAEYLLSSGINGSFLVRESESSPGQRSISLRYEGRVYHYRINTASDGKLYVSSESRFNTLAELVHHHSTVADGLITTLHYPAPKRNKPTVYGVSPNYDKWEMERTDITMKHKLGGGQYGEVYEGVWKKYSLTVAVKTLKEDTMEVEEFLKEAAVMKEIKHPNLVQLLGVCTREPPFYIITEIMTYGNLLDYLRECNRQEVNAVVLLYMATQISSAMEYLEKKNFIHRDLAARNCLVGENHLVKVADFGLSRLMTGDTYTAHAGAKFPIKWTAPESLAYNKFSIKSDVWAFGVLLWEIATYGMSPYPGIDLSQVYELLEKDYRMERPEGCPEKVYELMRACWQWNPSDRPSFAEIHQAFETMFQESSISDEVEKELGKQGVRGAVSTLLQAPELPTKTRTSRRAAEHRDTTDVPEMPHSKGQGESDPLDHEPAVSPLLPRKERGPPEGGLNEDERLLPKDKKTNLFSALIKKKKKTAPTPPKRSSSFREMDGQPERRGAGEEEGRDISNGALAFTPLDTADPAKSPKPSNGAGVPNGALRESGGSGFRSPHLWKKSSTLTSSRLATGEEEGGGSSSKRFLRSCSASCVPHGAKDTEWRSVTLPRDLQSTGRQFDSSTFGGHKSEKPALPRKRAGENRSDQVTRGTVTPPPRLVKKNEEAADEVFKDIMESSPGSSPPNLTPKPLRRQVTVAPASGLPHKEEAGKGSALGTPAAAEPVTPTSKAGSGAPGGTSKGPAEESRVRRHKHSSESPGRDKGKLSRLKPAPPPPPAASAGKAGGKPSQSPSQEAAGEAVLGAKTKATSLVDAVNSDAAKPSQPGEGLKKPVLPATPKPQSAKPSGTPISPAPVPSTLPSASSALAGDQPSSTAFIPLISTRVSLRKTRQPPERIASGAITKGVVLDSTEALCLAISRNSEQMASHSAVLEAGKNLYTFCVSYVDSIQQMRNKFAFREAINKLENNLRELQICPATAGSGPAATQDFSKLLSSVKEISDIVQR
# test: Radioactivity-based ABL kinase assay
# conditionContext: 100 μM 33P-ATP
Hi there, I'd appreciate the recorded IC50 for every entry that follows.
Numbers only, in nM.

compound="Cc1c(F)cncc1-c1cc2cnc(NC(=O)C3CC3)cc2n(C)c1=O [Compound 2]" propertyname=IC50 unitstext=nM quantitativereadout=47

Consider now this further compound.
Input: // lookup IC50 for Cc1c(F)cncc1-c1cc2cnc(NC(=O)[C@@H]3C[C@@H]3F)cc2n(C)c1=O [Compound 28]
Output: 114
